target.under.test: Follistatin (Homo sapiens)
assay.text: FST protein binding to printed compounds – biochemical, small-molecule microarray, 635/667 nm fluorescence, primary screen (AID 1132)
measurement.parameters: 635 nm fluorescence, higher = more signal
Use 0.4 as the dividing line for composite z-score, with the line itself on the MET side and lower values as NOT MET.

Incoming: hey, is composite z-score for this one >= 0.4? C=CCN1C(=O)[C@]2(Cc3ccccc31)N=C(c1ccc(OCCCO)cc1)O[C@@H]2c1ccccc1
Outgoing: MET

Incoming: hey, is composite z-score for this one >= 0.4? NC(=O)[C@]1(Cc2ccccc2)N=C(c2ccc(OCCCO)cc2)O[C@@H]1c1ccccc1
Outgoing: NOT MET

Incoming: hey, is composite z-score for this one >= 0.4? CC(c1ccccc1)C(O)C1C=CC2C(=O)N(Cc3ccccc3)C(=O)C2N1n1cnnc1 (configuration not stated)
Outgoing: NOT MET

Incoming: hey, is composite z-score for this one >= 0.4? CCN(CC)c1ccc(N2CC=CC34O[C@@H]5C=CCCOC(=O)C5[C@H]3C(=O)N(CCCO)[C@@H]4C2=O)cc1 (some centres not stated)
Outgoing: NOT MET

Incoming: hey, is composite z-score for this one >= 0.4? Cc1cc(C)c(C(O)C2C=CC3C(=O)NC(=O)C3N2Nc2ccccn2)c(C)c1 (configuration not stated)
Outgoing: MET

Incoming: hey, is composite z-score for this one >= 0.4? COCCOC(=O)N1C(=O)[C@@]2(c3cc(C#CCCO)ccc31)[C@H](c1ccc(O)cc1)N1[C@H](c3ccccc3)[C@H](c3ccccc3)OC(=O)[C@H]1[C@@H]2C(=O)N1CCCCCCC1
Outgoing: MET

Incoming: hey, is composite z-score for this one >= 0.4? C=CCC(OC(C)=O)[C@@H]1[C@@H](N(Cc2ccc(-c3ccccc3)cc2)C(=O)c2ccc(C)cc2)c2cc(OCCCO)ccc2N1C(=O)c1ccc2ccccc2n1 (some centres not stated)
Outgoing: NOT MET

Where these numbers come from: PubChem BioAssay
